Molecular target: human GPR119 (Homo sapiens, UniProt Q8TDV5)
Sequence (Q8TDV5 1-335): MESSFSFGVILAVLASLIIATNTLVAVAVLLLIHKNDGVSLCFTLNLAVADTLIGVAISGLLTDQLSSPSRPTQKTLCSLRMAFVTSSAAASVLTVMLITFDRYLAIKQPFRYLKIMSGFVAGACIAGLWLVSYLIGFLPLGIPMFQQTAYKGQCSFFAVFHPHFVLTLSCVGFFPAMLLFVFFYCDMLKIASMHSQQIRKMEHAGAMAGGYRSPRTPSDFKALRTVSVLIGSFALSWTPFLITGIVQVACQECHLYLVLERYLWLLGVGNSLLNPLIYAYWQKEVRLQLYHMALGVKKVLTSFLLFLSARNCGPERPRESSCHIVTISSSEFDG
Assay: cAMP HTRF functional assay (hGPR119 HEK-CRE beta-lactamase cells)
Assay type: cell-based
Parameters: host or cells: HEK293-CRE beta-lactamase
Conditions: percent of maximal activity relative to standard GPR119 agonist at 10 micromolar; read-out: Intrinsic Activity (Human cAMP)
Emax reference
readout-type: Emax

[
  {
    "smiles-notation": "Cc1c(O[C@H]2[C@@H]3COC[C@H]2CN(C(=O)OC2(C)CCC2)C3)ncnc1N1CCc2ncccc21",
    "assay-target": "human GPR119 (Homo sapiens, UniProt Q8TDV5)",
    "readout-type": "Emax",
    "test-value": "39.1%"
  },
  {
    "smiles-notation": "CC(C)OC(=O)N1CCC(Oc2ncnc(N3CCc4cc(S(C)(=O)=O)ccc43)c2C#N)CC1",
    "assay-target": "human GPR119 (Homo sapiens, UniProt Q8TDV5)",
    "readout-type": "Emax",
    "test-value": "95.3%"
  },
  {
    "smiles-notation": "Cc1c(OC2CCN(C(=O)OC(C)C)CC2)ncnc1N1CCc2cc(S(C)(=O)=O)ccc21",
    "assay-target": "human GPR119 (Homo sapiens, UniProt Q8TDV5)",
    "readout-type": "Emax",
    "test-value": "53%"
  },
  {
    "smiles-notation": "Cc1c(O[C@H]2[C@@H]3COC[C@H]2CN(C(=O)OC(C)(C)C)C3)ncnc1N1CCc2ncccc21",
    "assay-target": "human GPR119 (Homo sapiens, UniProt Q8TDV5)",
    "readout-type": "Emax",
    "test-value": "49.8%"
  },
  {
    "smiles-notation": "Cc1c(O[C@@H]2[C@@H]3COC[C@H]2CN(C(=O)OC(C)C)C3)ncnc1N1CCc2cc(S(C)(=O)=O)ccc21",
    "assay-target": "human GPR119 (Homo sapiens, UniProt Q8TDV5)",
    "readout-type": "Emax",
    "test-value": "26.3%"
  },
  {
    "smiles-notation": "CC(C)OC(=O)N1C[C@H]2COC[C@@H](C1)[C@H]2Oc1cc(N2CCc3cc(S(C)(=O)=O)ccc32)ncn1",
    "assay-target": "human GPR119 (Homo sapiens, UniProt Q8TDV5)",
    "readout-type": "Emax",
    "test-value": "96.5%"
  },
  {
    "smiles-notation": "Cc1c(OC2CCN(C(=O)OC(C)C)CC2)ncnc1N1CCc2ncccc21",
    "assay-target": "human GPR119 (Homo sapiens, UniProt Q8TDV5)",
    "readout-type": "Emax",
    "test-value": "20.3%"
  },
  {
    "smiles-notation": "CC(C)OC(=O)N1CCC(Oc2cc(N3CCc4cc(C#N)ccc43)ncn2)CC1",
    "assay-target": "human GPR119 (Homo sapiens, UniProt Q8TDV5)",
    "readout-type": "Emax",
    "test-value": "104%"
  }
]
